Test: Test Example 6: stability of respective vitamins on storage of infusion formulation of Example 11
Format: physicochemical
Conditions: in infusion formulation of Example 11; 40° C. and 75% RH; percentage based on the mixed amount
Where a name gives a salt, the structure may show the parent alone.
The entries below are paired with their reported residual rate (content), storage for 3 months.
Please respond with the number in % and leave the unit unwritten.

Here's what some known entries look like.
compound | measured.result
O=C(O)CCCC[C@@H]1SC[C@@H]2NC(=O)N[C@@H]21 | 91.4
Cc1ncc(CO)c(CO)c1O.Cl [Vitamin B6, Pyridoxine hydrochloride] | 97.3
NC(=O)c1cccnc1 [Nicotinamide] | 99.6
Nc1nc2ncc(CNc3ccc(C(=O)N[C@@H](CCC(=O)O)C(=O)O)cc3)nc2c(=O)[nH]1 | 89.7
O=C1O[C@H]([C@@H](O)CO)C(O)=C1O | 99.7
Cc1ncc(C[n+]2csc(CCO)c2C)c(N)n1 [Vitamin B1, Thiamine hydrochloride] | 83.5
Cc1cc2nc3c(=O)[nH]c(=O)nc-3n(C[C@H](O)[C@H](O)[C@H](O)COP(=O)([O-])O)c2cc1C.[Na+] [Vitamin B2, Riboflavin sodium phosphate] | 92.6

Now examine the next entry.
# lookup: residual rate (content), storage for 3 months of CC(C)(CO)[C@@H](O)C(=O)NCCCO 96.8
